tgt: Human Urine Urokinase (human, UniProt P00749)
assay-comment: enzyme inhibition assay; limit on the assumption of less than 10% inhibition at the highest concentration tested
pKi: −log10 of the molar value.
Measured pKi by item

# binder, pKi
records = [
    ("EPI-HNE-3 (designed binder) AACNLPIVRGPCIAFFPRWAFDAVKGKCVLFPYGGCQGNGNKFYSEKECREYCGVP", "< 4.00"),
]

Fill in reported pKi for this entry: EPI-HNE-4 (designed binder) EACNLPIVRGPCIAFFPRWAFDAVKGKCVLFPYGGCQGNGNKFYSEKECREYCGVP < 4.05
